Measured Cholesterol Lowering in % of Control, listed per entry for reference.
Test system: Hep G2 cells
Assay: Cholesterol measurement in Hep G2 cells exposed to HMG CoA Reductase peptides
Assay type: cell-based, human
Details: 1 ΦM, 24 hrs
parameter: Cholesterol Lowering in % of Control (%)

1) N-QKCDSVEE-C [Peptide 4, oligopeptide corresponding to a hydrophilic amino acid maximum of human hydroxy-methyl-glutaryl-CoA-reductase]	8.0
2) N-RVLEEEENK-C [Peptide 3, oligopeptide corresponding to a hydrophilic amino acid maximum of human hydroxy-methyl-glutaryl-CoA-reductase]	10.0
3) N-EETGINRERKVE-C [Peptide 5, oligopeptide corresponding to a hydrophilic amino acid maximum of human hydroxy-methyl-glutaryl-CoA-reductase]	1.5
4) N-SQDEVREN-C [Peptide 1, oligopeptide corresponding to a hydrophilic amino acid maximum of human hydroxy-methyl-glutaryl-CoA-reductase]	28.0
5) N-ELSRESREGR-C [Peptide 2, oligopeptide corresponding to a hydrophilic amino acid maximum of human hydroxy-methyl-glutaryl-CoA-reductase]	29.0
6) N-EPEIELPREPRPNEE-C [Peptide 6, oligopeptide corresponding to a hydrophilic amino acid maximum of human hydroxy-methyl-glutaryl-CoA-reductase]	4.0

Where do these numbers come from? They come from patent US7300918B2.
